# Assay Text: pH solubility
# Type: physicochemical
# Protocol Conditions: lower pH
Assay Readout: pH Range where Protein is >80% detected as Soluble and A650 <1 OD: Low
One number for each entry.

Query :: Need pH Range where Protein is >80% detected as Soluble and A650 <1 OD: Low of SEQID-00241: nutritive polypeptide (protein, listed as Bos taurus) SELKKDIDDLELTLAKVEKEKHATENKVKNLTEEMAGLDETIAKLTKEKKALQEAHQQTLDDLQAEEDKVNTLTKAKTKLEQQVDDLEGSLEQEKKLRMDLERAKRKLEGDLKLA , thanks.
Result :: 4.3
